Test: protein stability index of a GFP-peptide fusion (yeast GPS) (PSI 1-4); higher = more stable; sorted into four equal gates, so the index is relative within each strain
Conditions: doa10∆
observed-property: protein stability index
Give only the figure.

* NKTAHLSIPGKSTPEGT [SNU114] | 2.94

# protein stability index lookup, item DRDALSGWGAVVYIIKK [PUP3]
3.12

Returns the measured protein stability index for the input sequence. Input: EKYEDEDEEKILDNTEN [DSN1]
3.52

Requested read-out: protein stability index. Entry: RMSYGSHDKKTKCSTVV [SRP14]
2.96

====

Assay: protein stability index of a GFP-peptide fusion (yeast GPS) (PSI 1-4); higher = more stable; sorted into four equal gates, so the index is relative within each strain
Details: doa10∆
In this section we review reported protein stability index values for a set of sequences.
Note: the reply should be a number with no unit written.

- NSDDIIDVDMDASPAPS [SRB5]: 2.71
- LSKVSLLTPDIGAVYSG [PRE8]: 1.68
- LQYLPLYAVSTFENTNN [SIR4]: 1.82
- LEIRNKICSSEMINEQK [RGR1]: 3.02
- DTFGEGIIITDQSNVQY [BRR2]: 3.11
- NVKTSVSQLYRISEKSV [RPO31]: 3.04

Query: protein stability index; subject: VRDVAAQDFINAYASFL [RPS19A]
2.85

I'd like to know its protein stability index. The sequence in question is NSSEEDKKKGQNVTSET [ITC1]
3.5

Any idea what its protein stability index is? The sequence is ESFKGLQPFWFRVNNAS [ECM29]
2.05

// returns reported protein stability index for input SNIIHDESDTISFRSNL [SNF6]
2.79

Which protein stability index value belongs to AKEELNGLKDQLNEERS [YIL149C/MLP2] ?
3.3

Bench note: what protein stability index did TRLTAYQELAYRATSLD [YML031W/NDC1] show?
3.13

Consider the sequence DENELKKSEEKLREKVN [MTW1] and give its measured protein stability index.
2.97
